# System: MDAMB436
# Experimental details: area over the GR curve, 72 h; higher = more effect;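 further: Dye Drop or Deep Dye Drop imaging of viable cells in 384-well plates (Hoechst nuclei, LIVE/DEAD dye), nine half-log doses, GR normalized to DMSO controls and time-zero plates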
Decision: area over the GR curve >= 0.4 GR yields Condition met, all other cases yield Condition not met.

| Compound | Answer label |
| --- | --- |
| N.N.[Cl][Pt][Cl] [Cisplatin] (max 10 µM) | Condition not met |
| NC(=O)Nc1cc(-c2cccc(F)c2)sc1C(=O)N[C@H]1CCCNC1 [AZD7762] (max 10 µM) | Condition met |
| CCOc1cc2ncc(C#N)c(Nc3ccc(OCc4ccccn4)c(Cl)c3)c2cc1NC(=O)/C=C/CN(C)C [Neratinib/HKI272] (max 3.162 µM) | Condition not met |

Let's switch to this compound now.
Confirm if area over the GR curve reported for the compound COc1cc2c(Oc3ccc4[nH]c(C)cc4c3F)ncnc2cc1OCCCN1CCCC1 [Cediranib/AZD2171] (max 10 µM) is 0.4 GR or above. Condition not met
